Tested on: PDGFRα
Type: cell-based, rat
reported_conditions: together with MeHg
test_readout: effect on MeHg-induced reductions in levels of PDGFRα

Fyn-Scr-RNAi: scrambled negative control for Fyn RNAi, SEQ ID NO: 5 and 6 (nucleic acid) chain 1: CCCGGGTTTCAATATATTTCTCAAGAGAAAATATATTGAAACCCGGGTTTTTT chain 2: AATTAAAAAACCCGGGTTTCAATATATTTTCTCTTGAGAAATATATTGAAACCCGGGGGCC ... not
Fyn-RNAi: Fyn-specific siRNA construct, SEQ ID NO: 1 and 2 (nucleic acid, expressed or natural sequence) chain 1: GTTTGCTCGACTTCTTAAATTCAAGAGATTTAAGAAGTCGAGCAAACTTTTTT chain 2: AATTAAAAAAGTTTGCTCGACTTCTTAAATCTCTTGAATTTAAGAAGTCGAGCAAACGGCC ... protected
c-Cbl RNAi: c-Cbl siRNA construct, SEQ ID NO: 3 and 4 (nucleic acid, expressed or natural sequence) chain 1: GTGCATCCCATCAGTTCTGTTCAAGAGACAGAACTGATGGGATGCACTTTTTT chain 2: AATTAAAAAAGTGCATCCCATCAGTTCTGTCTCTTGAACAGAACTGATGGGATGCACGGCC ... protected
